System: P-Akt (S473)
protocol-notes: Cell based AlphaLISA assay, inhibition of P-Akt (S473) in MDA-MB-468 cells (mTORC2 substrate)
recorded-conditions: Homo sapiens, 4 h, AlphaLisa, two to four hours at 37° C., read-out: pIC50 for Inhibition of mTORC1 and mTORC2 Substrate Phosphorylation p-AKT1/2/3-(S473) (converted)
Each item that follows carries a reported IC50.

- CO[C@H]1C[C@@H]2CC[C@@H](C)[C@@](O)(O2)C(=O)C(=O)N2CCCC[C@H]2C(=O)O[C@H]([C@H](C)C[C@@H]2CC[C@@H](OC(=O)NCc3cnc(N4CCN(C(=O)CCOCCN5CCN(c6ncc(C(=O)N7CCc8cc(Cn9nc(-c%10ccc%11oc(N)nc%11c%10)c%10c(N)ncnc%109)ccc8C7)cn6)CC5)CC4)nc3)[C@H](OC)C2)CC(=O)[C@H](C)/C=C(\C)[C@@H](O)[C@@H](OC)C(=O)[C@H](C)C[C@H](C)/C=C/C=C/C=C/1C [Example 109]: > 1000 nM

**Q:** Query (molecule): CO[C@H]1C[C@@H]2CC[C@@H](C)[C@@](O)(O2)C(=O)C(=O)N2CCCC[C@H]2C(=O)O[C@H]([C@H](C)C[C@@H]2CC[C@@H](OC(=O)NCCOCCOCCOCCOCCOCCOCCOCCOCCC(=O)NCc3ccc(Cn4nc(-c5ccc6oc(N)nc6c5)c5c(N)ncnc54)cc3)[C@H](OC)C2)C[C@@H](O)[C@H](C)/C=C(\C)[C@@H](O)[C@@H](OC)C(=O)[C@H](C)C[C@H](C)/C=C/C=C/C=C/1C [Example 36] ; field requested: IC50
**A:** > 1000 nM

**Q:** Entry CO[C@H]1C[C@@H]2CC[C@@H](C)[C@@](O)(O2)C(=O)C(=O)N2CCCC[C@H]2C(=O)O[C@H]([C@H](C)C[C@@H]2CC[C@@H](OC(=O)NCc3cnc(N4CCN(c5ncc(C(=O)N6CCN(c7ncc(C(=O)N8CCc9cc(Cn%10nc(-c%11cnc%12[nH]ccc%12c%11)c%11c(N)ncnc%11%10)ccc9C8)cn7)CC6)cn5)CC4)nc3)[C@H](OC)C2)CC(=O)[C@H](C)/C=C(\C)[C@@H](O)[C@@H](OC)C(=O)[C@H](C)C[C@H](C)/C=C/C=C/C=C/1C [Example 140] has what IC50?
**A:** > 1000 nM

**Q:** # input molecule: CO[C@H]1C[C@@H]2CC[C@@H](C)[C@@](O)(O2)C(=O)C(=O)N2CCCC[C@H]2C(=O)O[C@H]([C@H](C)C[C@@H]2CC[C@@H](OC(=O)NCc3cnc(N4CCN(c5ncc(C(=O)N6CCN(c7ncc(C(=O)NCCCCn8nc(-c9ccc%10oc(N)nc%10c9)c9c(N)ncnc98)cn7)CC6)cn5)CC4)nc3)[C@H](OC)C2)CC(=O)[C@H](C)/C=C(\C)[C@@H](O)[C@@H](OC)C(=O)[C@H](C)C[C@H](C)/C=C/C=C/C=C/1C [Example 138] ; wanted: its IC50
**A:** < 3.16 nM

**Q:** Any idea what its IC50 is? The molecule is CO[C@H]1C[C@@H]2CC[C@@H](C)[C@@](O)(O2)C(=O)C(=O)N2CCCC[C@H]2C(=O)O[C@H]([C@H](C)C[C@@H]2CC[C@@H](OC(=O)NCc3cnc(N4CCN(C(=O)CCOCCN5CCN(c6ncc(C(=O)N7CCc8cc(Cn9nc(-c%10ccc%11oc(N)nc%11c%10)c%10c(N)ncnc%109)ccc8C7)cn6)CC5)CC4)nc3)[C@H](OC)C2)C[C@H](N=[N+]=[N-])[C@H](C)/C=C(\C)[C@@H](O)[C@@H](OC)C(=O)[C@H](C)C[C@H](C)/C=C/C=C/C=C/1C [Example 137]
**A:** 3.16 to 31.6 nM

**Q:** Quick one: IC50 of CO[C@H]1C[C@@H]2CC[C@@H](C)[C@@](O)(O2)C(=O)C(=O)N2CCCC[C@H]2C(=O)O[C@H]([C@H](C)C[C@@H]2CC[C@@H](OC(=O)N3CCc4nc(N5CCN(C(=O)CCOCCN6CCN(c7ncc(C(=O)N8CCc9cc(Cn%10nc(-c%11ccc%12oc(N)nc%12c%11)c%11c(N)ncnc%11%10)ccc9C8)cn7)CC6)CC5)ncc4C3)[C@H](OC)C2)C[C@@H](OC)[C@H](C)/C=C(\C)[C@@H](O)[C@@H](OC)C(=O)[C@H](C)C[C@H](C)/C=C/C=C/C=C/1C [Example 117] ?
**A:** 3.16 to 31.6 nM

**Q:** Would you mind telling me what IC50 value was observed for CO[C@H]1C[C@@H]2CC[C@@H](C)[C@@](O)(O2)C(=O)C(=O)N2CCCC[C@H]2C(=O)O[C@H]([C@H](C)C[C@@H]2CC[C@@H](OC(=O)NCc3cnc(N4CCN(c5ncc(C(=O)NCCOCCOCCOCCOCCC(=O)N6CCc7cc(Cn8nc(-c9cnc%10[nH]ccc%10c9)c9c(N)ncnc98)ccc7C6)c(N)n5)CC4)nc3)[C@H](OC)C2)CC(=O)[C@H](C)/C=C(\C)[C@@H](O)[C@@H](OC)C(=O)[C@H](C)C[C@H](C)/C=C/C=C/C=C/1C [Example 96] ?
**A:** 31.6 to 1000 nM

**Q:** Entry under review: CO[C@H]1C[C@@H]2CC[C@@H](C)[C@@](O)(O2)C(=O)C(=O)N2CCCC[C@H]2C(=O)O[C@H]([C@H](C)C[C@@H]2CC[C@@H](OC(=S)NCCOCCOCCOCCOCCOCCOCCOCCOCCC(=O)N3CCc4cc(Cn5nc(-c6ccc7oc(N)nc7c6)c6c(N)ncnc65)ccc4C3)[C@H](OC)C2)C[C@@H](OC)[C@H](C)/C=C(\C)[C@@H](O)[C@@H](OC)C(=O)[C@H](C)C[C@H](C)/C=C/C=C/C=C/1C [Example 34] . Reported IC50?
**A:** > 1000 nM

**Q:** Would you kindly share the measured IC50 for CO[C@H]1C[C@@H]2CC[C@@H](C)[C@@](O)(O2)C(=O)C(=O)N2CCCC[C@H]2C(=O)O[C@H]([C@H](C)C[C@@H]2CC[C@@H](OC(=O)NCCOCCOCCN3CCN(CCOCCOCCOCCOCCC(=O)N4CCc5cc(Cn6nc(-c7ccc8oc(N)nc8c7)c7c(N)ncnc76)ccc5C4)CC3)[C@H](OC)C2)C[C@@H](O)[C@H](C)/C=C(\C)[C@@H](O)[C@@H](OC)C(=O)[C@H](C)C[C@H](C)/C=C/C=C/C=C/1C [Example 143] ?
**A:** > 1000 nM
